Molecular target: RORc ligand binding domain (Homo sapiens)
Sequence (P51449 269-508 limits assumed): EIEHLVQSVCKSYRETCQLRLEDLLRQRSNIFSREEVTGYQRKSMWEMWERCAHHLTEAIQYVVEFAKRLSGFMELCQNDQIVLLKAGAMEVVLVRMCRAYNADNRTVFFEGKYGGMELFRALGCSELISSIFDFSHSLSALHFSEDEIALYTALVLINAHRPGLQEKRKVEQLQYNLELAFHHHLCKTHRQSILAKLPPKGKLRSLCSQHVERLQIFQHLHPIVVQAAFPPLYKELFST
experimental-endpoint: IC50 (nM)

CC1(C)[C@H]2CC[C@]1(c1cccc(-c3n[nH]c(=O)[nH]3)n1)c1nnc(-c3c(F)cccc3F)cc12
15

a. CC1(C)[C@H]2CC[C@]1(c1cccc(S(=O)(=O)N3CCOCC3)n1)c1nnc(-c3c(F)cccc3F)cc12
b. CC1(C)[C@H]2CC[C@]1(c1ncc(O)cn1)c1nnc(-c3c(F)cccc3F)cc12
c. CN(C)C(=O)c1ccnc([C@@]23CC[C@@H](c4cc(-c5c(F)cccc5F)nnc42)C3(C)C)c1
Request: Order the records so the highest IC50 appears first and the lowest last. Order the labels as requested and list them.
Response: c, b, a
(c: 1470 nM, b: 115 nM, a: 14.6 nM)

A. CC1(C)[C@H]2CC[C@]1(c1cncc(-c3ccc(OCCO)nc3)n1)c1nnc(-c3c(F)cccc3F)cc12
B. CC(C)c1ncn(-c2nccc([C@@]34CC[C@@H](c5cc(-c6c(F)cccc6F)nnc53)C4(C)C)n2)n1
Request: // which entry has the larger IC50 value, A or B ? Write down the label attached to your selection.
Response: A

P. CC1(C)[C@H]2CC[C@]1(c1cncc(C3=NNC(=O)CN3)n1)c1nnc(-c3c(F)cccc3F)cc12
Q. CC(C)(O)c1coc(-c2cncc([C@]34CC[C@H](c5cc(-c6c(F)cccc6F)nnc53)C4(C)C)n2)n1
R. CC(C)(O)c1nnc(-c2cccc([C@@]34CC[C@@H](c5cc(-c6c(F)cccc6F)nnc53)C4(C)C)n2)[nH]1
Request: Order the records so the highest IC50 appears first and the lowest last. Order the labels as requested and list them.
Response: R, P, Q
(R: 30.5 nM, P: 20.9 nM, Q: 8 nM)

###

target: RORc ligand binding domain (Homo sapiens, UniProt P51449); assay: In Vitro RORc Ligand Binding Assay; conditions: RORc IC50, radioligand 25-[3H]hydroxycholesterol 6 nM; 0.6 ug/mL RORc receptor; 3 h at 25° C.
experimental-endpoint: IC50 (µM)

CC1(C)[C@H]2CC[C@]1(c1cccc(C(N)=O)n1)c1nnc(-c3c(F)cccc3F)cc12
0.00866
C[C@@H](O)CNS(=O)(=O)c1cccc([C@@]23CC[C@@H](c4cc(-c5c(F)cccc5F)nnc42)C3(C)C)n1
0.0117
CC1(C)[C@H]2CC[C@]1(c1nccc(-n3ccnc3)n1)c1nnc(-c3c(F)cccc3F)cc12
0.011

I. CC(C)(O)Cn1ccc(-c2cncc([C@@]34CC[C@@H](c5cc(-c6c(F)cccc6F)nnc53)C4(C)C)n2)n1
II. CC1(C)[C@H]2CC[C@]1(c1ccnc(-n3cnc(CC(N)=O)n3)n1)c1nnc(-c3c(F)cccc3F)cc12
III. CC1(C)[C@H]2CC[C@]1(c1cncc(C(N)=O)n1)c1nnc(-c3c(F)cccc3F)cc12
IV. Cc1nnc(-c2ccnc([C@@]34CC[C@@H](c5cc(-c6c(F)cccc6F)nnc53)C4(C)C)c2)[nH]1
Request: Which order do these items take when sorted by rising IC50? List them. Order the labels as requested and list them.
Response: I, II, III, IV
(I: 0.0076 µM, II: 0.0112 µM, III: 0.0183 µM, IV: 0.0623 µM)

###

Biological target: RORc ligand binding domain (Homo sapiens)
Sequence (P51449 269-508 limits assumed): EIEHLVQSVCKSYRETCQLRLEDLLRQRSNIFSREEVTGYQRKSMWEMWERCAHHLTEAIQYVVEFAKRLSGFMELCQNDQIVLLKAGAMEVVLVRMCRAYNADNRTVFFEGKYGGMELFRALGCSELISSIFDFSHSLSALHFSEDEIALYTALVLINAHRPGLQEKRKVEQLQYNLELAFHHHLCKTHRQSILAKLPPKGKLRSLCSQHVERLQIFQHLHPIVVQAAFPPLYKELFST
pIC50: −log10 of the molar value.
experimental-endpoint: pIC50

A. COCCNC(=O)c1cncc([C@@]23CC[C@@H](c4cc(-c5c(F)cccc5F)nnc42)C3(C)C)n1
B. CC1(C)[C@H]2CC[C@]1(c1cncc(-c3nc(CCO)n[nH]3)n1)c1nnc(-c3c(F)cccc3F)cc12
C. Cc1n[nH]cc1-c1nccc([C@@]23CC[C@@H](c4cc(-c5c(F)cccc5F)nnc42)C3(C)C)n1
Request: Rank descending by pIC50. Order the labels as requested and list them.
Response: C, B, A

1. CC1(C)[C@H]2CC[C@]1(c1cccc(C(=O)NC(CO)CO)n1)c1nnc(-c3c(F)cccc3F)cc12
2. Cc1nnc(-c2cncc([C@@]34CC[C@@H](c5cc(-c6c(F)cccc6F)nnc53)C4(C)C)n2)o1
3. C[C@H](O)c1nnc(-c2cncc([C@@]34CC[C@@H](c5cc(-c6c(F)cccc6F)nnc53)C4(C)C)n2)[nH]1
Request: Order the records so the highest pIC50 appears first and the lowest last. Order the labels as requested and list them.
Response: 3, 2, 1
(3: 7.91, 2: 7.66, 1: 7.26)

###

Biological target: RORc ligand binding domain (Homo sapiens, UniProt P51449)
Sequence (P51449 269-508 limits assumed): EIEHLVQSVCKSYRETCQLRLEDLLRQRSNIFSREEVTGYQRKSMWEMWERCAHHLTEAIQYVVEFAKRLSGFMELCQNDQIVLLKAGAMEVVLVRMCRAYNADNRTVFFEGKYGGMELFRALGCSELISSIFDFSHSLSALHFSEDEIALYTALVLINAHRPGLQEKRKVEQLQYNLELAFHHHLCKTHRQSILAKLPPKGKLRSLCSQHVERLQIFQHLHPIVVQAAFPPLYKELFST
experimental-endpoint: IC50 (nM)

Below: 8 compounds and their reported IC50.
Cc1cc([C@@]23CC[C@@H](c4cc(-c5c(F)cccc5F)nnc42)C3(C)C)nc(N)n1 [Example 391]
44.6
Cc1oc(-c2cncc([C@@]34CC[C@@H](c5cc(-c6c(F)cccc6F)nnc53)C4(C)C)n2)nc1C(C)(C)O [Example 397]
10.4
CC1(C)[C@H]2CC[C@]1(c1ccnc(C(=O)NCCO)n1)c1nnc(-c3c(F)cccc3Cl)cc12 [Example 161]
44
CC1(C)[C@H]2CC[C@]1(c1cccc(CNC(=O)CO)n1)c1nnc(-c3c(F)cccc3F)cc12 [Example 116]
15.2
CC(C)(O)c1cnc(-c2cncc([C@@]34CC[C@@H](c5cc(-c6c(F)cccc6F)nnc53)C4(C)C)n2)o1 [Example 342]
11.7
CC1(C)[C@H]2CC[C@]1(c1nc(C(F)(F)F)ncc1Br)c1nnc(-c3c(F)cccc3F)cc12 [Example 168]
20.1
CC(C)(O)c1nc(-c2cncc([C@@]34CC[C@@H](c5cc(-c6c(F)cccc6F)nnc53)C4(C)C)n2)oc1Cl [Example 432]
18
Cc1ncn(-c2nccc([C@@]34CC[C@@H](c5cc(-c6c(F)cccc6F)nnc53)C4(C)C)n2)n1 [Example 212]
28.1

A. CC(C)(O)c1coc(-c2cncc([C@@]34CC[C@@H](c5cc(-c6ccccc6F)nnc53)C4(C)C)n2)n1 [Example 396]
B. CC(=O)N1CCC(c2nccc([C@@]34CC[C@@H](c5cc(-c6c(F)cccc6F)nnc53)C4(C)C)n2)CC1 [Example 351]
C. Cc1nc(C#N)c(C#N)nc1[C@@]12CC[C@@H](c3cc(-c4c(F)cccc4F)nnc31)C2(C)C [Example 167]
D. CC(C)(O)c1nnc(-c2ncc(F)c([C@@]34CC[C@@H](c5cc(-c6c(F)cccc6F)nnc53)C4(C)C)n2)[nH]1 [Example 234]
Request: Which order do these items take when sorted by rising IC50? List them. Order the labels as requested and list them.
Response: A, B, D, C
(A: 4.8 nM, B: 10.5 nM, D: 36.6 nM, C: 548 nM)

a. CC1(C)[C@H]2CC[C@]1(c1cccc(C(=O)NCCS(C)(=O)=O)n1)c1nnc(-c3c(F)cccc3F)cc12 [Example 83]
b. CC1(C)[C@H]2CC[C@]1(c1cncc(-c3ccn(CC(N)=O)n3)n1)c1nnc(-c3c(F)cccc3F)cc12 [Example 411]
Request: // which entry has the larger IC50 value, a or b ? Write down the label attached to your selection.
Response: a
(a: 13.3 nM, b: 8.8 nM)

a. CC1(C)[C@H]2CC[C@]1(c1cncc(-c3nc([C@@](C)(O)C(F)(F)F)co3)n1)c1nnc(-c3c(F)cccc3F)cc12 [Example 427]
b. CC(C)(O)c1ncc(-c2nccc([C@@]34CC[C@@H](c5cc(-c6c(F)cccc6F)nnc53)C4(C)C)n2)cn1 [Example 388]
Request: Quick one: lower IC50, a or b ? Write down the label attached to your selection.
Response: b

Recorded values, source patent US10487068B2.
